system: RSV genotype B, strain 9320; test: RSV-B assay: A549 cells infected with RSV-B, qPCR or ATPlite readout; format: cell-based; conditions: human respiratory syncytial virus, A549, 144 h, read-out: Human RSV-B EC50
Catalogue of EC50 readings, one per entry.

[in] Please report the measured EC50 for "O=C1Nc2ccccc2C(c2ccccc2)=N[C@@H]1Nc1nnc(-c2ncc(C(F)(F)F)cc2N2CC3CCC(C2)O3)o1"
[out] < 400 nM

[in] Please report the measured EC50 for "O=C1Nc2ccccc2C(c2ccccc2)=N[C@@H]1Nc1nnc(-c2ccc(F)cc2)o1"
[out] > 800 nM

[in] Please report the measured EC50 for O=C1Nc2ccccc2C(c2ccccc2)=NC1Nc1ccc(-c2ccccc2)nn1 (centres unmarked)
[out] > 800 nM

Continuing:
[in] Please report the measured EC50 for "O=C1Nc2ccccc2C(c2ccccc2)=N[C@@H]1Nc1nnc(-c2nc(C3CC3)sc2N2CCOCC2)o1"
[out] < 400 nM

[in] Please report the measured EC50 for "CCc1nc(-c2nnc(N[C@H]3N=C(c4ccccc4)c4ccccc4NC3=O)o2)c(N2CCOCC2)s1"
[out] < 400 nM

[in] Please report the measured EC50 for O=C1Nc2ccccc2C(c2ccccc2)=NC1Nc1nnc(-c2cccnc2N2CCOCC2)o1 (centres unmarked)
[out] 400 to 800 nM

[in] Please report the measured EC50 for "O=C1Nc2ccccc2C(c2ccccc2)=N[C@@H]1Nc1nnc(-c2csc(N3CCOCC3)n2)o1"
[out] 400 to 800 nM

[in] Please report the measured EC50 for O=C1Nc2ccccc2C(c2ccccc2)=NC1Nc1nnc(-c2ccccc2N2CCOCC2)o1 (centres unmarked)
[out] 400 to 800 nM
